molecular target: latent 20S proteasome (T-L activity) (Saccharomyces cerevisiae, UniProt P25043+P25451); construct: The yeast (Saccharomyces cerevisae) 26S and 20S proteasomes were purified according to the protocol described in; made in house; host or cells: Saccharomyces cerevisiae (native complex purified from yeast by the cited Leggett et al. 2002 protocol); test: Activating effect on the T-L activity of the latent 20S proteasome (activation factor fa); format: biochemical, yeast (Saccharomyces cerevisae); details: fa = Va/V0, concentration not given
Ends that are not written are not given here.

[
  {
    "substance": "TITFDY [reference compound]",
    "fa T-L activity": 3
  },
  {
    "substance": "TVTFKF [TVTFKF, reference compound]",
    "fa T-L activity": 1.7
  },
  {
    "substance": "CH3—(CH2)16—CO-TITFDY [C18/TITFDY]",
    "fa T-L activity": 1.2
  },
  {
    "substance": "TITYDF",
    "fa T-L activity": 2.5
  }
]
